test-details: chemical genetic growth profiling, strain panel (AID 1159580);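 note: tested at 20 µM; growth read once vehicle control cultures reached saturation at 30 °C; lower values mean less growth of the strain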
study-conditions: S. cerevisiae deletion strains, growth OD, locus YKL085W, strain MDH1 (second series)
In all, about 5,500 compounds went through this assay and about 2,000 (36%) were called active. Not shown: some 18% with an inconclusive outcome. Cut-off read from the data, not from the text of the source: active = normalized growth mostly below about 0.91 (no sharp cut-off); inconclusive = no clear call, values can overlap the other calls; inactive = mostly above about 0.92. Some of the results follow.
Bench note: report the call from active, inactive

These recorded examples may help you get a feel for the data.
{"compound": "O=C1C=C(O)c2ccccc2C1=O", "category-label": "inactive"}
{"compound": "COc1ccc(CC(=O)c2ccc(O)cc2O)cc1", "category-label": "inactive"}
{"compound": "O=C(/C=C/c1ccc(O)cc1)c1ccc(O)cc1O", "category-label": "inactive"}

Query block: Given O=c1c(O)cccc2cc(O)c(O)c(O)c12 , state the outcome it received in this test.
Result block: active

Query block: Given NC(Cc1ccc(Cl)cc1)C(=O)O (stereo not given) , state the outcome it received in this test.
Result block: inactive

Query block: Given CC(=O)Nc1c(I)cc(I)c(C(=O)O)c1I , state the outcome it received in this test.
Result block: inactive

Query block: Given CN1CCCCC1c1ccc(-c2cccnc2)nc1 (stereo not given) , state the outcome it received in this test.
Result block: inactive

Query block: Given COc1ccc(/C=C/c2cc(O)cc(O[C@@H]3O[C@H](CO)[C@@H](O)[C@H](O)[C@H]3O)c2)cc1 , state the outcome it received in this test.
Result block: inactive

Query block: Given O=C(O)c1cc(O)c2c(c1)C(=O)c1cc(O)cc(O)c1C2=O , state the outcome it received in this test.
Result block: active

Query block: Given COC(=O)C[C@H]1C(C)(C)[C@@H](OC(C)=O)[C@@H]2CC3=C4CC(=O)O[C@@H](c5ccoc5)[C@]4(C)CCC3[C@@]1(C)C2=O (stereo not given in full) , state the outcome it received in this test.
Result block: inactive

Query block: Given C=C(C)C1Cc2c(ccc(C(=O)O)c2O)O1 (stereo not given) , state the outcome it received in this test.
Result block: inactive

Query block: Given O=C(CCc1ccc(O)cc1)c1c(O)cc(O)cc1O , state the outcome it received in this test.
Result block: inactive
